// data source = patent US20240043504A1

- EXPERIMENTAL SYSTEM: SARS-CoV-2 Spike Protein (RBD)(R319-F541).hFc (mAb10622-L1) (SARS-CoV-2)
- EXPERIMENT NOTES: Luminex bead binding, supernatant

BINDER	Binding signal (MFI)
mAb11006 (antibody, V domains shown) VH: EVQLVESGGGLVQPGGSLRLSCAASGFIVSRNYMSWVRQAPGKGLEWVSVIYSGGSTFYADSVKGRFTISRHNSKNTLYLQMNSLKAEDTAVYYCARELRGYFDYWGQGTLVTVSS VL: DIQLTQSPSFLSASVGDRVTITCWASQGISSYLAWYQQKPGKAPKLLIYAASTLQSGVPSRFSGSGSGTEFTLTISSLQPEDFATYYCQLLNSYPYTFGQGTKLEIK	3980
